The values you see were collected from the supplement of paper PMC9732359.

- experiment_summary: protein stability index of a GFP-peptide fusion (yeast GPS) (PSI 1-4); higher = more stable; sorted into four equal gates, so the index is relative within each strain
- condition_context: pdr5∆
metric_name: protein stability index
One number for each entry.

For orientation, consider the following solved cases.
* LEILIVTKDGVRKEFYE [PRE7] | 2.54
* KDRIIDERTKEFEKKLQ [YIL149C/MLP2] | 3.06
* IGAELKREESESAAVYN [SNF2] | 3.08
* SVKSARTSTRGRGRGRG [SNF2] | 3.35
* ALRLSMEEEQQRQERLR [RPN10] | 3.06

Would you be so kind as to report protein stability index for each listed record?
1. SILEEKIAVLNNDKREI [SMC1]
2. LNEAQGHIVSLELTTGA [SMD3]
3. SFRIKQKMAKAKKQNRP [RPL39]
4. IWFPEDFISPELIIDKV [MED1]
5. ITLLTRQRELLIAHQRS [GRR1]
6. DADGDIDMGEDKENVPV [DPB4]

Result:
[3.38, 1.9, 2.78, 2.66, 2.14, 3.29]

Quick batch: protein stability index for everything below.
1. IQDSNGDVKNMEDVKIQ [SWI3]
2. RQRELLIAHQRSAWNNN [GRR1]
3. SLFHTAVSVANGFMHAG [RPN2]
4. RQCFQDNCCDFKVRTNL [MED1]

Result:
1. 2.8
2. 2.24
3. 1.51
4. 3.23

Provide the reported protein stability index of each entry below, same order.
1. ELSRIENEVENINATNT [YCS4]
2. AVRLILPGELAKHAVSE [HTB1]
3. YIFFGPIYYQKLKHMVL [RET1]
4. LIQEHDSRKNREQSSND [BRN1]
5. IVLIKGISSAYIKSATL [SNU114]
6. KLQSQSLHTKNVFGTLQ [YLR018C/POM34]
7. KTICNLLISDTESNELI [IRR1]

Result:
3.11
2.98
1.38
3.38
2.05
2.82
2.73

Below are 8 sequences. Give each one its protein stability index.
1. STFENRNVGKTLVNKST [RPS1A]
2. LIIDEIHLLHDDRGPVL [BRR2]
3. TPLTENILIASLMDTLI [YCG1]
4. HGTSTSAEDEENIIQRL [CDC53]
5. INSGTFVKVTKATLELL [RPL7A]
6. IEHPMTSAIEVLVGSCA [RPN1]
7. ESSNEAKKTIQNPLNKS [SIR4]
8. TLNPDLFLYKELVKAHL [RPC82]

Result:
1: 2.74; 2: 2.98; 3: 1.7; 4: 3.34; 5: 2.92; 6: 1.81; 7: 2.76; 8: 2.87

Go through the items and report each one's protein stability index.
1. LLLLSLFKKITNVNPSK [YML103C/NUP188]
2. IRKSETSGRYASYRICM [RPB5]
3. SVQNLDQLLTDLIETSF [NUT1]
4. RIFKITEKLSPLASEES [YGL100W/SEH1]
5. VGMRYFHKQQAHFWKPV [RPL28]
6. IDIDKLIQLGVKPLESS [SRP72]
7. ENSEPPALESSPVTGDN [SNF2]

Result:
1: 1.9; 2: 2.89; 3: 2.64; 4: 2.5; 5: 3.02; 6: 2.87; 7: 3.24

I need protein stability index for every entry listed below, if you could help.
1. DNLFGETESSVSNNEAN [SWI3]
2. RASLVPGTVLILLAGRF [RPL6A]

Result:
1: 2.92; 2: 1.93

Provide protein stability index values for the following items, in order.
1. PSVNDFVIGVIIGTFSD [RRP40]
2. LRRRTASHNVRRIPKRM [POP1]
3. VSAAEDESLIRELYKYV [PRP28]
4. EQKWLIYDKKDHKYVCT [SRB8]
5. AQGTKFRISLGLPVGAI [RPL23A]
6. EMKTQAAELQEKPLTPL [SNF6]

Result:
[2.51, 3.02, 3.27, 2.33, 1.84, 3.14]

Fill in protein stability index for each of the 6 sequences listed.
1. DWVRFLALALGILYMGQ [RPN1]
2. KELNEKIQKLEEDDEGE [RPN7]
3. LMLKKLKNSIMSFIFPS [YML031W/NDC1]
4. DQLAVSPEQIDASPDSL [YCS4]
5. GRLSLRSLTAYAPNLML [QCR10]
6. MPGVSVRDVAAQDFINA [RPS19A]

Result:
[1.45, 1.61, 2.3, 1.89, 1.9, 1.31]
